assay: Preclinical PK after intraperitoneal dosing of COMPOUND D, COMPOUND B and viloxazine; type: in vivo, mouse; conditions: mouse, plasma, ip, 10.948 mg/kg, COMPOUND B IP 10.948 mg/kg; 0.500 h; individual mice; read-out: Plasma concentration of COMPOUND B
parameter: concentration at 0.5 h
Units required after the number.

**Q:** Data request, read-out concentration at 0.5 h, for CCOc1ccccc1OC[C@@H]1CN(C(=O)OC(OC(=O)[C@@H](N)C(C)C)C(C)C)CCO1 (stereo partly shown) [COMPOUND B]
**A:** 5.75 ng/mL

* * *

assay: in vivo; conditions: female, beagle, dog, plasma, po, 80 mg/kg
parameter: Tmax (min)
Quick note: give the figure in min, leave out the unit.

**Q:** Sample CCOc1ccccc1OC[C@@H]1CN(C(=O)OC(OC(=O)[C@H](N)C(C)C)C(C)C)CCO1 (stereo partly shown) — what was its Tmax?
**A:** 30

* * *

test: Metabolic stability in human intestinal homogenate; type: in vitro ADME; settings: intestinal homogenate, pH 7.2; Human intestinal homogenates
parameter: half-life at 1 μM (min)
Just the number please, in min, no unit attached.

>  <molecule>
CCOc1ccccc1OCC1CN(C(=O)OC(OC(=O)[C@@H](N)C(C)C)C(C)C)CCO1 (some centres unmarked)

>  <half-life at 1 μM (min)>
10.8

$$$$

From here, focus on the item given below.
**Q:** Record request: half-life at 1 μM value, item CCOc1ccccc1OCC1CN(C(=O)OC(C)OC(=O)[C@H](N)C(C)C)CCO1 (some centres unmarked)
**A:** 0.85

* * *

Listed below: microsomal CLint at 1 μM values for each entry.
test: Metabolic stability in human intestinal homogenate; assay type: in vitro ADME; details: intestinal homogenate, pH 7.2; Human intestinal homogenates; read-out: CLint(mic.)
Number only, in µL/min/mg; omit the unit.

>  <molecule>
CCOc1ccccc1OCC1CN(C(=O)OC(OC(=O)[C@@H](N)C(C)C)C(C)C)CCO1 (some centres unmarked)

>  <resultNumber>
128

$$$$

**Q:** Value lookup for microsomal CLint at 1 μM; key = CCOc1ccccc1OCC1CN(C(=O)OC(C)OC(=O)[C@H](N)C(C)C)CCO1 (some centres unmarked)
**A:** 1630

* * *

test: Metabolic stability in rat liver S9; format: in vitro ADME, Sprague Dawley rat; conditions: Sprague-Dawley, pH 7.2; 1 μM in SD Rat liver S9 fractions
parameter: half-life at 1 μM (min)
Answer with a number only, understood to be in min.

>  <molecule>
CCOc1ccccc1OCC1CN(C(=O)OC(OC(=O)[C@@H](N)C(C)C)C(C)C)CCO1 (some centres unmarked)

>  <half-life at 1 μM (min)>
4.8

$$$$

Read the next record carefully.
**Q:** Reported half-life at 1 μM, molecule CCOc1ccccc1OCC1CN(C(=O)OC(C)OC(=O)[C@H](N)C(C)C)CCO1 (some centres unmarked) : ____
**A:** 9.4

* * *

assay: Metabolic stability in human intestinal homogenate; type: in vitro ADME; details: pH 7.2; human intestinal homogenate, 1 μM
parameter: half-life at 1 μM (min)
Answer in min, number only, no unit symbol.

>  <molecule>
CCOc1ccccc1OC[C@@H]1CN(C(=O)OC(OC(=O)[C@@H](N)C(C)C)C(C)C)CCO1 (stereo partly drawn)

>  <unitOfMeasurement>
min

>  <half-life at 1 μM>
10.3

$$$$

From here, focus on the item given below.
**Q:** I am curious: what half-life at 1 μM value has been reported for CCOc1ccccc1OC[C@@H]1CN(C(=O)OC(OC(=O)[C@H](N)C(C)C)C(C)C)CCO1 (stereo partly drawn) ?
**A:** 7.2
